Cited source: ChEMBL document CHEMBL3608284

- tested_on: 5-hydroxytryptamine receptor 2B (Homo sapiens, UniProt P41595)
- Sequence (P41595 whole entry): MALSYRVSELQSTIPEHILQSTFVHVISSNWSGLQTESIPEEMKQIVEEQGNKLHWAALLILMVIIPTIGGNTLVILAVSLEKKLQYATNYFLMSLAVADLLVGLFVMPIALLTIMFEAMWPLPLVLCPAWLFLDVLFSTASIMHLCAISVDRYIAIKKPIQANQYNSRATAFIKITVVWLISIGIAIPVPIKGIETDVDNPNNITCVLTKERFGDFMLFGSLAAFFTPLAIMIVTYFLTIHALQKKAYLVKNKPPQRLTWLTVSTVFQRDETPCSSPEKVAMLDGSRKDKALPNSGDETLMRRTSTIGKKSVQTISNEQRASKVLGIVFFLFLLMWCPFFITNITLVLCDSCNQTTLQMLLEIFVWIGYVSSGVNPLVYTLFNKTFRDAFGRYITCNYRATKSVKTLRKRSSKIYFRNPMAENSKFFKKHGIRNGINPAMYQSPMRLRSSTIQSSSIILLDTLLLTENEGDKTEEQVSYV
- experiment_description: Displacement of [3H]LSD from 5HT2B receptor (unknown origin) at 10 uM
Threshold rule: inhibition greater than or equal to 80% is t; below that, f.

INSERT INTO measurements (compound, class_name) VALUES
  ('C=CCOc1c(OC)cc2c3c1-c1cc4c(cc1CC3N(C)CC2c1ccccc1)OCO4 (stereo unspecified)', 'f');

**Q:** Check this compound for inhibition at or above 80%: COc1cc2c3c(c1OCc1ccc(Br)cc1)-c1cc4c(cc1CC3N(C)CC2c1ccccc1)OCO4 (stereo unspecified)
**A:** f

**Q:** Request: COc1cc2c3c(c1OCC1CC1)-c1cc4c(cc1CC3N(C)CC2c1ccccc1)OCO4 (stereo unspecified)
**A:** f

**Q:** Same question, COc1cc2c3c(c1OC)-c1cc4c(cc1CC3N(CC1CC1)CC2c1ccccc1)OCO4 (stereo unspecified) this time
**A:** f

**Q:** // same read-out, input: CCCCOc1c(OC)cc2c3c1-c1cc4c(cc1CC3N(C)CC2c1ccccc1)OCO4 (stereo unspecified)
**A:** f

**Q:** Can you handle COc1cc2c3c(c1O)-c1cc4c(cc1CC3N(C)CC2c1ccccc1)OCO4 (stereo unspecified) next?
**A:** f
